Provenance of the data: patent US6825191B2

Below is a list of entries, each paired with its recorded IC50 value.
# System Tested: human thrombin (Homo sapiens, UniProt P00734)
# Construct: solution of human thrombin (a product of SIGMA Co.); purchased SIGMA Co
# Test Method Notes: Determination of thrombin-inhibiting activity (chromogenic substrate S-2238, initial rate)
# Assay type: biochemical
# Test Context: negative logarithm of concentration inhibiting 50% of initial rate; tris hydrochloride buffer pH 8.4, room temperature; read-out: Thrombin-inhibiting activity (pIC50) (converted)
Give the value in µM but do not write µM after it.

The following compounds have reported results that may help.
Compound | IC50, µM
CC(C)N1CCN(C(=O)CCc2ccc3c(c2)N(Cc2ccc(C(=O)N4CC=CC4)cc2)C(=O)CN(C(=O)c2ccc(Cl)cc2)C3)CC1.O=C(O)C(F)(F)F [Compd. of Ex. 115, trifluoroacetate] | 39.8
O=C(c1ccc(CN2C(=O)CN(C(=O)c3ccc(Cl)cc3)Cc3ccc(CCCO)cc32)cc1)N1CC=CC1 | 79.4

Q. Kindly state the measured IC50 obtained for O=C(O)C(F)(F)F.O=C(c1ccc(Cl)cc1)N1CC(=O)N(CC2CCN(C3CCCCC3)CC2)c2ccccc2C1 [Compd. of Ex. 143, mono(trifluoroacetate)] with human thrombin (Homo sapiens, UniProt P00734).
A. 63.1

Q. Kindly state the measured IC50 obtained for O=C(c1ccc(CN2C(=O)CN(C(=O)c3ccc(Cl)cc3)Cc3ccccc32)cc1)N1CC=CC1 with human thrombin (Homo sapiens, UniProt P00734).
A. 50.1

Q. Kindly state the measured IC50 obtained for O=C(c1ccc(CN2C(=O)CN(C(=O)c3ccc(Cl)cc3)Cc3ccc(CCP(=O)(O)O)cc32)cc1)N1CC=CC1 with human thrombin (Homo sapiens, UniProt P00734).
A. 39.8

Q. Kindly state the measured IC50 obtained for O=C(CCc1ccc2c(c1)N(Cc1ccc(C(=O)N3CC=CC3)cc1)C(=O)CN(C(=O)c1ccc(Cl)cc1)C2)N1CCOCC1 with human thrombin (Homo sapiens, UniProt P00734).
A. 63.1

Q. Kindly state the measured IC50 obtained for CN1CCN=C1c1ccc(CN2C(=O)CN(C(=O)c3ccc(Cl)cc3)Cc3ccc(CCC(=O)N4CCOCC4)cc32)cc1.O=C(O)C(F)(F)F [Compd. of Ex. 144, mono(trifluoroacetate)] with human thrombin (Homo sapiens, UniProt P00734).
A. 79.4

====

# System Tested: activated human blood coagulation factor X (Homo sapiens, UniProt P00742)
# Construct: purchased Enzyme Research Co
# Sequence (P00742 235-488 limits assumed): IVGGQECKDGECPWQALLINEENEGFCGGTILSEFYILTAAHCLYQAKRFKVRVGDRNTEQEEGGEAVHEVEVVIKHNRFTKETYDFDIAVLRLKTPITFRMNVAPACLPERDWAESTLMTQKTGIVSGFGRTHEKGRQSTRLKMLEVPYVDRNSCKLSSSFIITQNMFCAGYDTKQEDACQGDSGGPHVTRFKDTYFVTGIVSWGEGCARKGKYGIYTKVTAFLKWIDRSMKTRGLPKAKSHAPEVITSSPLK
# Sequence (P00742 41-179 partner limits assumed): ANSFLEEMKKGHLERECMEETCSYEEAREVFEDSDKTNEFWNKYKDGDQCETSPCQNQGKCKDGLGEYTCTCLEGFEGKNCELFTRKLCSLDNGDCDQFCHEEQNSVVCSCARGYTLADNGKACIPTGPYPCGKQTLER
# Test Method Notes: Determination of activity of inhibiting the activated blood-coagulation factor X (chromogenic substrate, initial rate)
# Assay type: biochemical
# Test Context: negative logarithm of concentration inhibiting 50% of initial rate; tris hydrochloride buffer pH 8.4, room temperature; read-out: Activity of inhibiting activated blood coagulation factor X (pIC50) (converted)
# Protocol: Determination of Activity of inhibiting the Activated Blood-coagulation Factor X 130 μl of 100 mM tris hydrochloride buffer adjusted to pH 8.4 was added to 10 μl of an aqueous solution of a compound to be tested. […] The a absorbance was determined and then the initial reaction rate was determined. […] The absorbance was determined with MICROPLATE READER Model 3550-UV (a product of BIO RAD) at a wave length of 405 nm at intervals of 15 seconds for 16 minutes.
Structures can show the parent of a compound that is named as a salt.
Lab note: anything with IC50 below 50 nM is marked criterion met; values at 50 nM or higher are marked criterion not met.

Some solved entries appear below for comparison.
Compound | Assigned Label
O=C(CCc1ccc2c(c1)N(Cc1ccc(C(=O)N3CC=CC3)cc1)C(=O)CN(C(=O)c1ccc(Cl)cc1)C2)N1CCOCC1 | criterion met
O=C(O)CCc1ccc2c(c1)N(Cc1ccc(C(=O)N3CC=CC3)cc1)C(=O)CN(C(=O)c1ccc(Cl)cc1)C2 | criterion met
O=C(O)C(F)(F)F.O=C(c1ccc(CN2C(=O)CN(C(=O)c3ccc(Cl)cc3)Cc3ccc(CCCN4CCCCC4)cc32)cc1)N1CC=CC1 [Compd. of Ex. 93, trifluoroacetate] | criterion not met

Q. Bench note: check whether O=C(c1ccc(CN2C(=O)CN(C(=O)c3ccc(Cl)cc3)Cc3ccc(CCP(=O)(O)O)cc32)cc1)N1CC=CC1 shows IC50 below 50 nM
A. criterion met

Q. Bench note: check whether O=C(c1ccc(Cl)s1)N1CC(=O)N(CC2CCN(c3ccncc3)CC2)c2ccccc2C1 [Compd. of Ex. 24, trifluoroacetate] shows IC50 below 50 nM
A. criterion not met
